Experiment: Human HepG2 cell viability assay in 384 well format
Type: toxicity, cell-based
Design: dose 125 nL, time 70.5 hour; concentration not given beside the values
Details: HepG2 cells, read-out: Inhibition
testReadout: cytotoxicity at 70.5 h (%)
Answer format: numeric, % implied, no suffix.

Record excerpt, results attached:
Cc1cccc(NCc2ncc(C(C)(C)C)o2)c1 ... 12.6
COC(=O)c1cccc(C(=O)NCc2ccco2)n1 ... -15.9
O=C(NCc1ccccc1Cl)c1[nH]nc2c1CS(=O)(=O)CC2 ... -5.21
COc1ccc(N2Cc3nc(N)ncc3C2=O)cc1 ... 9.83
CC1=NOC(C(=O)N2CCC(O)(c3ccc4nc(C)ccc4c3)CC2)C1 (stereo not drawn) ... -6.17
CCn1ncnc1CN1CCOC(Cc2cccc3ccccc23)C1 (stereo not drawn) ... -7.56
CS(=O)(=O)NCCNc1ncnc2cccc(F)c12 ... -6.37
CCc1nnc(CN(C)c2nc(C(C)C)nc3c2cnn3C)o1 ... -5.57

Looking up Cc1nc(C)n(CC2CCCN2Cc2nc3ccccc3n2C)n1 (stereo not drawn) , I found its cytotoxicity at 70.5 h recorded as -7.27

Looking up CN1CCC(NCC(O)c2cccc(OCc3ccccc3)c2)CC1 (stereo not drawn) , I found its cytotoxicity at 70.5 h recorded as 4.18

Looking up CCN1CCN(C(C)CNC(=O)Nc2nc3ccccc3s2)CC1 (stereo not drawn) , I found its cytotoxicity at 70.5 h recorded as -7.3

Looking up c1ccc(O[C@H]2COCCN(CC3CC3)C2)cc1 , I found its cytotoxicity at 70.5 h recorded as -1.48

Looking up CC(Cn1cccn1)NCC(=O)NCCc1cccs1 (stereo not drawn) , I found its cytotoxicity at 70.5 h recorded as -4.39

Looking up CC(C)(C)c1noc(CCC(=O)N2CCN(Cc3ccc(Cl)s3)CC2)n1 , I found its cytotoxicity at 70.5 h recorded as 25.8

Looking up CCS(=O)(=O)c1ccc(N2CCC(NC(=O)NC(C)CO)CC2)cc1 (stereo not drawn) , I found its cytotoxicity at 70.5 h recorded as -1.95

Looking up Cc1ncc(CN(C)Cc2nc3cc(Cl)ccc3n2C)s1 , I found its cytotoxicity at 70.5 h recorded as -18.2

Looking up Cc1cncc(C(=O)N2CCCC(O)(CO)C2)c1 (stereo not drawn) , I found its cytotoxicity at 70.5 h recorded as -7.18

Looking up O=C(c1ccc2c(c1)CCC2)N1CCC(c2n[nH]c(C3CC3)n2)CC1 , I found its cytotoxicity at 70.5 h recorded as -7.78

Looking up Cc1nn(C)c(C)c1NC(=O)CNc1cccc(CC(F)(F)F)c1 , I found its cytotoxicity at 70.5 h recorded as -1.15

Looking up O=C(c1nc(Cc2c[nH]c3ccccc23)no1)N1CCCC1 , I found its cytotoxicity at 70.5 h recorded as -3.26

Looking up CCCS(=O)(=O)N1CCOC2(CCCN(Cc3ccccn3)C2)C1 (stereo not drawn) , I found its cytotoxicity at 70.5 h recorded as -2.44

Looking up CC1(C)CN(Cc2cc(C3CCCCC3)no2)CC[C@]1(C)O , I found its cytotoxicity at 70.5 h recorded as -12.5

Looking up COc1cccc(S(=O)(=O)CCN2CCCN(C(C)=O)CC2)c1 , I found its cytotoxicity at 70.5 h recorded as 0.259
